# Tested on: Escherichia coli TOP10
# METHOD_DESCRIPTION: shrunken log2 fold change of peptide-encoding DNA abundance (4.5 h post-induction vs induction); higher = less antimicrobial activity (less host growth inhibition)
# RECORDED_CONDITIONS: time post-induction: 4.5 h; library: site-saturation at positions 5, 18, 19, 20
// false (0) strictly below -0.003 in shrunken log2 fold change; true (1) otherwise

Answered cases to consult:
          residue_sequence  category_label
0  RRIRARPPRLPRPRPRPQNPPRP        true (1)
1  RRIRCRPPRLPRPRPRPDKEPRP        true (1)
2  RRIRYRPPRLPRPRPRPISPPRP        true (1)

Shifting focus to the sequence that follows.
Determine whether this sequence has shrunken log2 fold change no lower than -0.003: RRIRERPPRLPRPRPRPERPPRP false (0)

====

# System: Escherichia coli TOP10
# METHOD_DESCRIPTION: shrunken log2 fold change of peptide-encoding DNA abundance (4.5 h post-induction vs induction); higher = less antimicrobial activity (less host growth inhibition)
# RECORDED_CONDITIONS: time post-induction: 4.5 h; library: site-saturation at positions 5, 18, 19, 20
Binary call on shrunken log2 fold change: Criterion met from -0.02 upward, Criterion not met beneath that.

>>> print(df.to_string())
          residue_sequence     category_label
0  RRIRKRPPRLPRPRPRPLWKPRP  Criterion not met
1  RRIRLRPPRLPRPRPRPNEFPRP  Criterion not met
2  RRIRARPPRLPRPRPRPRYLPRP  Criterion not met
3  RRIRDRPPRLPRPRPRPSWLPRP      Criterion met
4  RRIRSRPPRLPRPRPRPHIGPRP      Criterion met

hey, is shrunken log2 fold change for this one >= -0.02? RRIRLRPPRLPRPRPRPEMQPRP Criterion met

Given the entry RRIRCRPPRLPRPRPRPMCLPRP , answer whether its shrunken log2 fold change meets or surpasses -0.02. Criterion not met

Has RRIRGRPPRLPRPRPRPCDDPRP a recorded shrunken log2 fold change greater than or equal to -0.02? Criterion met

====

# Test system: Escherichia coli TOP10
# METHOD_DESCRIPTION: shrunken log2 fold change of peptide-encoding DNA abundance (4.5 h post-induction vs induction); higher = less antimicrobial activity (less host growth inhibition)
# RECORDED_CONDITIONS: time post-induction: 4.5 h; library: site-saturation at positions 5, 18, 19, 20
# shrunken log2 fold change >= -0.06 gives met, anything below gives not met

Known results for sequences:
In [3]: df
Out[3]:
          residue_sequence  category_label
0  RRIRIRPPRLPRPRPRPIHKPRP         not met
1  RRIRCRPPRLPRPRPRPAFEPRP             met
2  RRIRTRPPRLPRPRPRPMVNPRP             met

Next up:
Textbook exercise: given the entry RRIRNRPPRLPRPRPRPPYNPRP , state whether its shrunken log2 fold change is greater than or equal to -0.06. not met

====

# Tested on: Escherichia coli TOP10
# METHOD_DESCRIPTION: shrunken log2 fold change of peptide-encoding DNA abundance (4.5 h post-induction vs induction); higher = less antimicrobial activity (less host growth inhibition)
# RECORDED_CONDITIONS: time post-induction: 4.5 h; library: site-saturation at positions 5, 18, 19, 20
METRIC: shrunken log2 fold change
Lab note: jot the number down without any unit.

Look over these answered cases.
In [3]: df
Out[3]:
          residue_sequence       system_under_test  observed_measurement
0  RRIRGRPPRLPRPRPRPQAMPRP  Escherichia coli TOP10               -0.0164
1  RRIRSRPPRLPRPRPRPDALPRP  Escherichia coli TOP10                 0.353
2  RRIRDRPPRLPRPRPRPPVSPRP  Escherichia coli TOP10                0.0155

Given RRIRCRPPRLPRPRPRPVACPRP , state its recorded shrunken log2 fold change. -0.0888

Any idea what its shrunken log2 fold change is? The sequence is RRIRSRPPRLPRPRPRPYKEPRP -0.0146

Any idea what its shrunken log2 fold change is? The sequence is RRIRQRPPRLPRPRPRPITMPRP 0.00801

Give its shrunken log2 fold change value. Item: RRIRTRPPRLPRPRPRPRNMPRP -0.493

shrunken log2 fold change lookup needed for RRIRGRPPRLPRPRPRPRAGPRP , thanks. 1.36

Sample RRIRLRPPRLPRPRPRPLYVPRP — what was its shrunken log2 fold change? -0.897

Recorded shrunken log2 fold change of RRIRHRPPRLPRPRPRPFSYPRP , please. -0.28

Any idea what its shrunken log2 fold change is? The sequence is RRIRPRPPRLPRPRPRPETAPRP 0.396

What does the record list as shrunken log2 fold change for RRIRVRPPRLPRPRPRPFDIPRP ? 0.145

====

# Tested on: Escherichia coli TOP10
# METHOD_DESCRIPTION: shrunken log2 fold change of peptide-encoding DNA abundance (4.5 h post-induction vs induction); higher = less antimicrobial activity (less host growth inhibition)
# RECORDED_CONDITIONS: time post-induction: 4.5 h; library: site-saturation at positions 5, 18, 19, 20
// classify(record): look up shrunken log2 fold change in ranges L = under -0.08, M = from -0.08 up to 0.3, H = 0.3 and over

Solved cases (8 shown):
>>> df
          residue_sequence  category_label
0  RRIRARPPRLPRPRPRPWKEPRP               M
1  RRIRIRPPRLPRPRPRPKKLPRP               L
2  RRIRARPPRLPRPRPRPTFGPRP               H
3  RRIRDRPPRLPRPRPRPMPDPRP               M
4  RRIRRRPPRLPRPRPRPEGHPRP               H
5  RRIRERPPRLPRPRPRPYKPPRP               L
6  RRIRMRPPRLPRPRPRPWDLPRP               H
7  RRIRNRPPRLPRPRPRPAHIPRP               M

State the band of RRIRMRPPRLPRPRPRPGQGPRP M

GET /class?item= RRIRLRPPRLPRPRPRPDQVPRP M

====

# Test system: Escherichia coli TOP10
# METHOD_DESCRIPTION: shrunken log2 fold change of peptide-encoding DNA abundance (4.5 h post-induction vs induction); higher = less antimicrobial activity (less host growth inhibition)
# RECORDED_CONDITIONS: time post-induction: 4.5 h; library: site-saturation at positions 5, 18, 19, 20
Listed sequences paired with reported shrunken log2 fold change
Enter the number alone.

>>> print(df.to_string())
          residue_sequence                     metric  observed_measurement
0  RRIRFRPPRLPRPRPRPCNVPRP  shrunken log2 fold change                 -0.01

Returns the measured shrunken log2 fold change for the input sequence. Input: RRIRLRPPRLPRPRPRPGEAPRP 0.214

Value lookup for shrunken log2 fold change; key = RRIRKRPPRLPRPRPRPTYHPRP -0.283

Name the reported shrunken log2 fold change value associated with the sequence RRIRRRPPRLPRPRPRPLMAPRP 0.312

====

# Tested on: Escherichia coli TOP10;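 note: peptides expressed intracellularly from a pBAD plasmid library in pooled LB shake-flask culture, induced with 0.3% L-arabinose, DNA abundance read by NGS, three biological replicates, DESeq2 with apeglm shrinkage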
# METHOD_DESCRIPTION: shrunken log2 fold change of peptide-encoding DNA abundance (4.5 h post-induction vs induction); higher = less antimicrobial activity (less host growth inhibition)
# RECORDED_CONDITIONS: time post-induction: 4.5 h; library: site-saturation at positions 5, 18, 19, 20
Threshold rule: shrunken log2 fold change greater than or equal to -0.07 is criterion met; below that, criterion not met.

Answered cases to consult:
          residue_sequence     category_label
0  RRIRYRPPRLPRPRPRPWCPPRP  criterion not met
1  RRIRYRPPRLPRPRPRPQRYPRP  criterion not met
2  RRIRRRPPRLPRPRPRPAKEPRP      criterion met
3  RRIRPRPPRLPRPRPRPPQYPRP      criterion met
4  RRIRCRPPRLPRPRPRPARTPRP      criterion met

Reported shrunken log2 fold change reaches at least -0.07 for RRIRIRPPRLPRPRPRPMLEPRP ? criterion met

# bool: shrunken log2 fold change of RRIRARPPRLPRPRPRPMVYPRP >= -0.07 criterion met

Kindly determine if shrunken log2 fold change recorded for RRIRPRPPRLPRPRPRPCNIPRP is above or exactly -0.07. criterion not met

Entry RRIRWRPPRLPRPRPRPAYLPRP : is its shrunken log2 fold change no less than -0.07? criterion not met

Does shrunken log2 fold change meet or surpass -0.07 for RRIRVRPPRLPRPRPRPTTDPRP ? criterion met

Hello, I need to know if RRIRIRPPRLPRPRPRPLQDPRP has measured shrunken log2 fold change not below -0.07. Thanks! criterion not met
